Values compiled from patent US5232941A.

- ASSAYED_TARGET: 12-lipoxygenase (Rattus norvegicus)
- Construct: the frozen platelet rich plasma was allowed to melt and then subjected to ultrasonic treatment in ice water so that an enzyme solution was obtained; from tissue; host or cells: rat platelets (washed, frozen, sonicated; crude enzyme solution)
- Sequence (F1LQ70 whole entry): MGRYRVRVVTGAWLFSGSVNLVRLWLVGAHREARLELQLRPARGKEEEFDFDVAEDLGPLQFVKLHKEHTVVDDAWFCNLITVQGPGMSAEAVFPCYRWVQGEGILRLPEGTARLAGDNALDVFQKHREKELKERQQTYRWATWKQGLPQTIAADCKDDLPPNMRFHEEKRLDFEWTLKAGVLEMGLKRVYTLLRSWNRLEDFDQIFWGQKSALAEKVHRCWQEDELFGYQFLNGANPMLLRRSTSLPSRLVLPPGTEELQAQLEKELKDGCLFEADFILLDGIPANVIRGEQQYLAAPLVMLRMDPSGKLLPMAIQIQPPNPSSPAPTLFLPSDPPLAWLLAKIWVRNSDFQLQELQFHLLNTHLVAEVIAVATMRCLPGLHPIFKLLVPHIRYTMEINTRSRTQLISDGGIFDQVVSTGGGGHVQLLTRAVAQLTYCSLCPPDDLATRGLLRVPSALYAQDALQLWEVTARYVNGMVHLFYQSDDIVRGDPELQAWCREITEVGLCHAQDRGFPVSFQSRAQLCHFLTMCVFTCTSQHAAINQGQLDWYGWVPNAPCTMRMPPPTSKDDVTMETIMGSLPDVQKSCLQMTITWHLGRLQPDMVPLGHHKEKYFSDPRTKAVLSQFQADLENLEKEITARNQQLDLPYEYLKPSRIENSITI
- METHOD_SUMMARY: 12-Lipoxygenase Inhibition Activity (In Vitro), 12-HETE production by rat platelet enzyme solution
- Format: biochemical
- PARTICULARS: 10^-6 M; [14C]-arachidonic acid; 5 min pre-incubation at 37° C., 5 min reaction; read-out: Inhibition rate (%) of 12-HETE production
ATTRIBUTE_MEASURED: inhibition at 1 µM (%)

Please review the entries below; each comes with its answer.
N#CC(=Cc1ccc2oc(=O)oc2c1)C(=O)OCCc1ccccc1 ... 82.9
CCOC(=O)Oc1ccc(C=C(C#N)C(=O)OCCCc2ccccn2)cc1OC(=O)OCC ... 68.4
CCOC(=O)Oc1ccc(C=C(C#N)C(=O)OCc2ccsc2)cc1OC(=O)OCC ... 64.6

(a) CCOC(=O)Oc1ccc(C=C(C#N)C(=O)OCc2ccco2)cc1OC(=O)OCC
(b) CCCCCCCOC(=O)Oc1ccc(C=C(C#N)C(=O)OCCc2cccs2)cc1OC(=O)OCCCCCCC
Asked: Would you mind telling me which has the lower recorded inhibition at 1 µM between a and b ? API: response body contains the label of the selected item.
Given back: b
(b: 27.6%, a: 53.8%)
